assay: Chimney test in mice; format: in vivo, mouse; conditions: mouse, in vivo; ip, log-probit method
measured property: TD50 at 30 min
Returns: string containing the numeric result and its unit.

Given CCC(CN1CCN(c2ccccc2OC)CC1)NCCCOc1c(C)cccc1C.Cl.Cl (stereo not shown) [HBK-10] , state its recorded TD50 at 30 min.
21.7 mg/kg

* * *

Experiment: MTT viability assay in HepG2 cells
Assay type: cell-based
Conditions: human, HBK-10 5 μM, % of control, read-out: Viability (% ± SEM)
Procedure: To investigate the lack of hepatotoxicity of HBK-10 at 25 µM concentration, we used HepG2 cells. Viability was measured using 3-(4,5-dimethyl-thiazol-2-yl)-2,5-diphenyltetrazolium (MTT) assay. […] To investigate the preliminary hepatic safety of HBK-10 at the concentration used in metabolic stability study, a human hepatocellular carcinoma cell line—HepG2 (HB-8065TM, ATCC, Manassas, VA, USA) was used in the study. […] Following the incubation cells viability was measured with MTT assay. […]
measured property: viability at 24 h, 5 µM (%)
Give the number; % is assumed, so skip it.

Given CCC(CN1CCN(c2ccccc2OC)CC1)NCCCOc1c(C)cccc1C.Cl.Cl (stereo not shown) , state its recorded viability at 24 h, 5 µM.
109
